# testSystem: Jak2 (UniProt O60674)
# Sequence (O60674 whole entry, looked up): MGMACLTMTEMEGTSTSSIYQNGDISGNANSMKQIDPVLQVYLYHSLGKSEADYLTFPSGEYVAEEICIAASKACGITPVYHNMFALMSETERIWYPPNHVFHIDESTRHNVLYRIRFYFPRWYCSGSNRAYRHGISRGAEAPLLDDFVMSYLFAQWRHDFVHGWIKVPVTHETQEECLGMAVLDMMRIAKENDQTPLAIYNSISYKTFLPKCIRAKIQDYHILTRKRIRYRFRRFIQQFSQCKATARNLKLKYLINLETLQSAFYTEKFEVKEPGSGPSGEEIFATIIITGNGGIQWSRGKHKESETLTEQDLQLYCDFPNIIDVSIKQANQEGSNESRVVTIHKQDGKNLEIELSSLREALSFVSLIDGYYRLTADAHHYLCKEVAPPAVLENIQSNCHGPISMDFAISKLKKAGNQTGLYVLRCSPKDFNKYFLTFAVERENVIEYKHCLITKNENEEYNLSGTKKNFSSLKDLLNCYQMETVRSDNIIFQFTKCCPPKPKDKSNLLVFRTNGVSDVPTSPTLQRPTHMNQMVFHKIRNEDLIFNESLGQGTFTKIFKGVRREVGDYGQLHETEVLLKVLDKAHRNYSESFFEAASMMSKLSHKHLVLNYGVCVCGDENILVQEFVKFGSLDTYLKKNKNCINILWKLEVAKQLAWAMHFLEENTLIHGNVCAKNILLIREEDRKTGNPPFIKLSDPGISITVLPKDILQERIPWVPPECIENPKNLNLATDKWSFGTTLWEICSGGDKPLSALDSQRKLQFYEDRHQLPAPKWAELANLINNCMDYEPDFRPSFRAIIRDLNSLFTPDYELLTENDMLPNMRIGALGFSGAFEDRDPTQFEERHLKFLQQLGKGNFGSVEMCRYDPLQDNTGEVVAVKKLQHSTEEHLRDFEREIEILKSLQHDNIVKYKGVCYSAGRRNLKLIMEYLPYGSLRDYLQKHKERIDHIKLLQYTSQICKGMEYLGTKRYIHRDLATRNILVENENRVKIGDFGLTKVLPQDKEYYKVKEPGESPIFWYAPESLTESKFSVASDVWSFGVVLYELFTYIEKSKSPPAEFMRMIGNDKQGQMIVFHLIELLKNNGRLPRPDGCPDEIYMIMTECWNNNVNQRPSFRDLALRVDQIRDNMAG
# assayDetails: phosphorylation enrichment, bacterial display (enrichment ratio); higher = better substrate or ligand; peptides without Tyr show the background
quantity: phosphorylation enrichment
I'd appreciate a reply containing only the number, no unit.

> print(dat)
                      sequencedata  recordednumber
1          DWRQEYVLNES [TGM1_Y267]           0.863
2        LGRGKYSEVFE [CSNK2A1_Y50]           0.929
3         GMSQAYSFSQR [DES_Y5_S7F]           0.551
4  VEFAKYGSLQG [RET_Y809_R813Q_YF]           0.846

Query block: Entry CEAVEYLESKQ [BTK_Y511_M509V] needs its phosphorylation enrichment filled in; supply it.
Result block: 1.32

====

# testSystem: Grb2 SH2 (UniProt P62993)
# Sequence (P62993 whole entry, looked up): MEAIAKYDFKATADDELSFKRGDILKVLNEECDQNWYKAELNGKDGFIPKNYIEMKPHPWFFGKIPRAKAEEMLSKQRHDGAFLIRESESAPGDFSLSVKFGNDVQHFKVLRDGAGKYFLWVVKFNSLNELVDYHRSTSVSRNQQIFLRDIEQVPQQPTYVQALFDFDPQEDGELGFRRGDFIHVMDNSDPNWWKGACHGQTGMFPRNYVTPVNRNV
# assayDetails: SH2 binding enrichment of the phosphorylated peptide, bacterial display (enrichment ratio); higher = better substrate or ligand; peptides without Tyr show the background
Measured SH2 binding enrichment, listed per entry for reference.

> print(dat)
                          sequencedata                quantity  result
 1           LENQTYFKSFE [AKAP9_Y2482]  SH2 binding enrichment   0.978
 2              VDLIVYLRTNP [TK2_Y181]  SH2 binding enrichment   0.709
 3          LNGDRYFKGIV [DCX_Y64_R59L]  SH2 binding enrichment    0.78
 4       AGLVQYYMEHH [PTPN11_Y80_E76G]  SH2 binding enrichment    1.35
 5      YSMGCYEFSLG [HMGCL_Y198_I200F]  SH2 binding enrichment     0.8
 6              YQLENYCNGGG [INS_Y108]  SH2 binding enrichment   0.862
 7         NIQKKYFRAIL [CHD7_Y1217_YF]  SH2 binding enrichment    0.96
 8               CSRRFYQLTKL [AR_Y858]  SH2 binding enrichment   0.663
 9  INSLKYAFNVS [EIF2B5_Y583_I587V_YF]  SH2 binding enrichment   0.705
10       LRVHSYKSMQH [DRC7_Y516_P521H]  SH2 binding enrichment   0.881

Query block: // fetch SH2 binding enrichment given entry RCYVYYYSYLL [PTEN_Y177_R173C]
Result block: 0.668

Query block: Output measured SH2 binding enrichment for this item: KLFFIYTPGTT [SLC27A4_Y245_S247P_YF]
Result block: 0.598

Query block: For the sequence PQAVTYAKVKH [LILRB4_Y360] , give its reported SH2 binding enrichment.
Result block: 0.759

Query block: Report measured SH2 binding enrichment; entry is FVSSFYHAFSG [ACTN4_Y265_YF]
Result block: 1.33

====

Listing of recorded phosphorylation enrichment by entry.
# System: c-Abl (mouse)
# assayDetails: phosphorylation enrichment, bacterial display (enrichment ratio); higher = better substrate or ligand; peptides without Tyr show the background

See these solved cases before continuing.
> print(dat)
                          sequencedata  result
1          IGEGTSGVVYK [CDK2_Y15_Y15S]     0.5
2     CTTIHYIFMCN [TP53_Y234_N235I_YF]   0.695
3             VQDPAYLRDID [OPRK1_Y369]   0.905
4        PATINYLFEKG [NDUFS8_Y84_P85L]   0.293
5      LHAAAYQNALA [UQCRC2_Y182_R183Q]   0.495
6  QHVPDYRQNGF [PCDHGA1_Y890_V894G_YF]   0.758
7       TSYQMYDKGLV [IARS2_Y231_F227S]   0.432
8      PQDVTYARLHS [LILRB4_Y412_Q414R]   0.842

Query block: Provide one value: measured phosphorylation enrichment of PKDSAYVTWEP
Result block: 1.16

Query block: Quickly give me recorded phosphorylation enrichment for SDFFAYSPVQE [H6PD_Y449_R453Q_YF]
Result block: 0.922

Query block: State its phosphorylation enrichment: ILTLKYPIERG [ACTA1_Y71_H75R]
Result block: 0.581

Query block: Report phosphorylation enrichment for SLIDMYSEVPD [OPA1_Y268_L272P]
Result block: 0.619

Query block: Give me measured phosphorylation enrichment, please, for this sequence: EWLRRHLENGK [HLA-A_Y195_Y195H]
Result block: 0.57

Query block: Provide one value: measured phosphorylation enrichment of DRLANYLEKVR [KRT40_Y103_S102N]
Result block: 0.469
